meta.source: ChEMBL document CHEMBL3272125

Test system: Trypanosoma cruzi
PROCEDURE TEXT: Antiprotozoal activity against Trypanosoma cruzi BH infected in CFW mouse assessed as increase in host mean survival time at 25 mg/kg, ip administered daily for 5 days starting 4 hrs post-parasite infection (reference value: 14 +/- 1 days)
Format: functional
EXPERIMENTAL PARAMETERS: route intraperitoneal
PROPERTY MEASURED: MST (days)
Provide only the numeric value, understood in days.

Worked cases, answers included:
O=[N+]([O-])c1ccc(-c2nc(/C=N/N3CCOCC3)cs2)s1	12
O=[N+]([O-])c1ccc(-c2nc(/C=N/N3CCCCCC3)cs2)o1	4
O=[N+]([O-])c1cnc(-c2nc(/C=N/N3CCSCC3)cs2)s1	0
CC1CS(=O)(=O)CCN1/N=C/c1ccc([N+](=O)[O-])o1 (stereo not given) [NIFURTIMOX]	60
O=[N+]([O-])c1ccc(-c2nc(/C=N/N3CCCCC3)cs2)o1	42
O=[N+]([O-])c1ccc(-c2nc(/C=N/N3CCSCC3)cs2)o1	18

Query "O=[N+]([O-])c1ccc(-c2nc(/C=N/N3CCOCC3)cs2)o1" yields MST of 60

Query "Cn1c([N+](=O)[O-])cnc1-c1nc(/C=N/N2CCOCC2)cs1" yields MST of 4

Query "O=[N+]([O-])c1ccc(-c2nc(/C=N/N3CCS(=O)(=O)CC3)cs2)o1" yields MST of 18.5

Query "Cn1c([N+](=O)[O-])cnc1-c1nc(/C=N/N2CCS(=O)(=O)CC2)cs1" yields MST of 60

###

Tested on: Trypanosoma cruzi
PROCEDURE TEXT: Antiprotozoal activity against Trypanosoma cruzi BH infected in CFW mouse assessed as increase in host mean survival time at 10 mg/kg, ip administered daily for 5 days starting 4 hrs post-parasite infection (reference value: 14 +/- 1 days)
Type: functional
EXPERIMENTAL PARAMETERS: route intraperitoneal
The following compounds are listed with their measured MST values.
Provide only the numeric value, understood in days.

O=[N+]([O-])c1ccc(-c2nc(/C=N/N3CCCCC3)cs2)o1	3
O=[N+]([O-])c1ccc(-c2nc(/C=N/N3CCOCC3)cs2)o1	27
O=[N+]([O-])c1ccc(-c2nc(/C=N/N3CCOCC3)cs2)s1	0
Cn1c([N+](=O)[O-])cnc1-c1nc(/C=N/N2CCS(=O)(=O)CC2)cs1	60

As a next step, examine the compound that follows.
Param item: "Cn1c([N+](=O)[O-])cnc1-c1nc(/C=N/N2CCOCC2)cs1" ; param system: Trypanosoma cruzi; output MST: 0

###

System: Trypanosoma cruzi
PROCEDURE TEXT: Antiprotozoal activity against Trypanosoma cruzi BH infected in CFW mouse assessed as increase in host mean survival time at 200 mg/kg, po administered daily for 5 days starting 4 hrs post-parasite infection (reference value: 14 +/- 1 days)
Assay type: functional
PROPERTY MEASURED: MST (days)
Provide only the numeric value, understood in days.

Worked cases, answers included:
O=[N+]([O-])c1ccc(-c2nc(/C=N/N3CCSCC3)cs2)o1	18
O=[N+]([O-])c1ccc(-c2nc(/C=N/N3CCOCC3)cs2)s1	60

Query "O=[N+]([O-])c1cnc(-c2nc(/C=N/N3CCOCC3)cs2)s1" yields MST of 0

Query "O=[N+]([O-])c1ccc(-c2nc(/C=N/N3CCCCC3)cs2)o1" yields MST of 32

Query CC1CS(=O)(=O)CCN1/N=C/c1ccc([N+](=O)[O-])o1 (stereo unspecified) [NIFURTIMOX] yields MST of 60

Query "O=[N+]([O-])c1cnc(-c2nc(/C=N/N3CCCCC3)cs2)s1" yields MST of 0

Query "O=[N+]([O-])c1ccc(-c2nc(/C=N/N3CCCCCC3)cs2)o1" yields MST of 2
